This collection of values is drawn from patent US20170290876A1.

The binders listed here are annotated with their koff.
- TESTED_ON: T1, human VEGF (human, UniProt P15692 207-395, biotinylated (site not stated))
- T1 construct: Biotinylated human VEGF generated internally; also called hVEGF; hVEGF-biotin
- T1 sequence: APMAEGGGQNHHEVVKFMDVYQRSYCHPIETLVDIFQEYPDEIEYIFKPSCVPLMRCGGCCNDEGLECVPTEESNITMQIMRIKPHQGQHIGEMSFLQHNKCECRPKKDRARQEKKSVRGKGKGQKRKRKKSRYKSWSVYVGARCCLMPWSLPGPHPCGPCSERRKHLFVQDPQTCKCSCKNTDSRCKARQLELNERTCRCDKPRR
- MEASUREMENT_PROTOCOL: Biacore SPR, hVEGF

[
  {
    "BINDER": "HC2T (Fab, V domains shown, Tagged heavy chain CDR variant HC2 with NVS4 light chain) VH: EVQLVESGGGLVQPGGSLRLSCTASGFSLTNYYYMTWVRQAPGKGLEWVGFIDPQNDPYYATWAKGRFTISRDNSKNTLYLQMNSLRAEDTAVYYCAGGNHNSGWGLDIWGQGTLVTVSS VL: EIVMTQSPSTLSASVGDRVIITCQASEIIHSWLAWYQQKPGKAPKLLIYLASTLASGVPSRFSGSGSGAEFTLTISSLQPDDFATYYCQNVYLASTNGANFGQGTKLTVLK",
    "koff": "0.000862 s⁻¹"
  },
  {
    "BINDER": "NVS4 heavy chain variant D31N (Fab, V domains shown, CDR variant of NVS4) VH: EVQLVESGGGLVQPGGSLRLSCTASGFSLTNYYYMTWVRQAPGKGLEWVGFIDPDDDPYYATWAKGRFTISRDNSKNTLYLQMNSLRAEDTAVYYCAGGDHNSGWGLDIWGQGTLVTVSS VL: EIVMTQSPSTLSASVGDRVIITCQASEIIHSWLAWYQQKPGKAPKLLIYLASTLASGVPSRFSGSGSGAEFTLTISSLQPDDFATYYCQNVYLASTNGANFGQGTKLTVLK",
    "koff": "4.7e-05 s⁻¹"
  },
  {
    "BINDER": "LC1T (Fab, V domains shown, Light chain CDR variant LC1 of NVS4 with tagged NVS4 heavy chain) VH: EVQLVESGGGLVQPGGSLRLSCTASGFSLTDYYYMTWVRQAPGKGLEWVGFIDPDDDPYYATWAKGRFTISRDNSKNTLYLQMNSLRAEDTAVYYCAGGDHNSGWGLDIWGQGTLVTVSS VL: EIVMTQSPSTLSASVGDRVIITCQASQIIHSWLAWYQQKPGKAPKLLIYQASTLAKGVPSRFSGSGSGAEFTLTISSLQPDDFATYYCQNVYLASTNGANFGQGTKLTVLK",
    "koff": "7.3e-05 s⁻¹"
  }
]
